protocol summary: qHTS of pediatric cancer cell lines to identify multiple opportunities for drug repurposing: Primary screen for SK-N-SH cells (AID 1347098); note: nearly all actives have a fitted effect of over 65% in size
measurement setup: SK-N-SH viability, CellTiter-Glo luminescence, 48 h; series mostly up to 57 µM
Records with an inconclusive call do not appear. The source made the active and inactive calls. Calls come from the whole dose curve; as a rule, active = well fitted cell-killing curve with a large enough effect; inconclusive = small, poorly fitted or top-dose-only effect; inactive = no such curve, though single readings can be large or run the other way.
Outcome codes: active, inactive

INSERT INTO measurements (molecule, group_label) VALUES
  ('CC(C)N(CCCNC(=O)Nc1ccc(C(C)(C)C)cc1)C[C@H]1O[C@@H](n2cc(Br)c3c(N)ncnc32)[C@H](O)[C@H]1O', 'active'),
  ('CC1(C)OC2CC3C4CC(F)C5=CC(=O)C=CC5(C)C4C(O)CC3(C)[C@]2(C(=O)CO)O1 (stereo partly specified)', 'inactive'),
  ('C[C@@H](N)c1ccc(C(=O)Nc2ccnc3[nH]ccc23)cc1', 'active'),
  ('COc1cc(Nc2nc3ccccc3nc2NS(=O)(=O)c2ccc(NC(=O)c3ccc(C)c(OC)c3)cc2)cc(OC)c1', 'active'),
  ('NS(=O)(=O)c1cc(Cl)c(Cl)c(S(N)(=O)=O)c1', 'inactive'),
  ('CCN1CCN(c2ccc(Nc3cc(N(C)C(=O)Nc4c(Cl)c(OC)cc(OC)c4Cl)ncn3)cc2)CC1', 'inactive'),
  ('O=C(NC[C@H](O)CO)c1ccncc1Nc1ccc(I)cc1F', 'active'),
  ('CNC(=O)c1c(-c2ccc(F)cc2)oc2cc(N(CCO)S(C)(=O)=O)c(C3CC3)cc12', 'active'),
  ('CC[C@H](C)C(=O)O[C@H]1C[C@H](O)C=C2C=C[C@H](C)[C@H](CC[C@@H](O)C[C@@H](O)CC(=O)O)[C@H]21', 'inactive'),
  ('CCN1C[C@H](C)n2c(c(O)c3c(=O)n(Cc4ccc(F)c(Cl)c4)nc(C(=O)NC)c32)C1=O', 'inactive'),
  ('Cn1c(=O)c(Oc2ccc(F)cc2F)cc2cnc(NC3CCOCC3)nc21', 'inactive'),
  ('Fc1ccc(C(c2ccc(F)cc2)N2CCN(CC=Cc3ccccc3)CC2)cc1', 'inactive'),
  ('O=C1Nc2ccc(I)cc2C1=Cc1cc(Br)c(O)c(Br)c1', 'inactive'),
  ('COc1nccc(-c2c(-c3ccc(F)cc3)ncn2C2CCNCC2)n1', 'inactive'),
  ('CCCCOCCOc1nc(-c2ccc(C(=O)O)c(F)c2)sc1C', 'active'),
  ('CC[C@H]1OC(=O)[C@H](C)[C@@H](O[C@H]2C[C@@](C)(OC)[C@@H](O)[C@H](C)O2)[C@H](C)[C@@H](O[C@@H]2O[C@H](C)C[C@H](N(C)C)[C@H]2O)[C@](C)(O)C[C@H](C)C(=NOCOCCOC)[C@H](C)[C@@H](O)[C@]1(C)O', 'active'),
  ('CNC1[C@H](O)C(O[C@@H]2C(O)C(O[C@H]3O[C@H]([C@@H](C)NC)CC[C@H]3N)[C@@H](N)C[C@H]2N)OC[C@]1(C)O (stereo partly specified)', 'inactive'),
  ('CO[C@@H]1C(N(C)C(=O)c2ccccc2)C[C@H]2O[C@]1(C)n1c3ccccc3c3c4c(c5c6ccccc6n2c5c31)C(=O)NC4=O (stereo partly specified)', 'active'),
  ('CN(C)CCN(C)C(=O)c1ccc(NC(=O)Nc2ccc(-c3nc(N4CCOCC4)c4ccn(CC(F)(F)F)c4n3)cc2)cc1', 'active'),
  ('O=C(Nc1ncc(SCCN2CCCC2)s1)[C@]1(c2ccc(S(=O)(=O)C3CC3)cc2)C[C@@H]1C1CCCCC1', 'inactive'),
  ('COc1ccc(Cn2ccc3ccc(C(=O)NO)cc32)cc1', 'active'),
  ('Nc1ccn([C@@H]2O[C@H](CO)[C@@H](O)[C@H]2O)c(=O)n1', 'inactive'),
  ('C[C@@]1(c2cc(-c3cncnc3)c(F)cc2F)CCSC(N)=N1', 'active'),
  ('Cc1ccc(NC(=O)c2cccc(N(C)C)c2)cc1NC(=O)c1ccc(O)cc1', 'active'),
  ('CC(=O)O[C@]1(C(C)=O)CC[C@H]2[C@@H]3C=C(Cl)C4=CC(=O)[C@@H]5C[C@H]5[C@]4(C)[C@@H]3CC[C@@]21C', 'active'),
  ('CC1CCN(c2cc(N3CCN(C)CC3)ccc2NC(=O)c2cc(C#N)c[nH]2)CC1', 'active');

----------
protocol summary: qHTS for identification of novel therapeutic agents for treatment of microphthalmiaassociated transcription factor (MiT) renal cell carcinoma (RCC) (AID 1963991);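 note: curves scaled with 100% = DMSO viability and 0% = empty wells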
measurement setup: TFE3-RCC viability, CellTiter-Glo, 48 h; measured here: UOK124 Z-AUC; stronger effect = lower value
Inconclusive results are not listed.
Here, each record is paired with measured z-score data.
property name: z-score

INSERT INTO measurements (smiles, measured) VALUES
  ('CC1(C)[C@H]2CC[C@]3(C)[C@@H](C(=O)C=C4[C@@H]5C[C@@](C)(C(=O)O)CC[C@]5(C)CC[C@]43C)[C@@]2(C)CC[C@@H]1O', 0.724),
  ('O=C(c1ccc(C(=O)N2CCC(N3CCCC3)CC2)c(Nc2ccccc2)c1)N1CCC(N2CCCC2)CC1', 1.07),
  ('CCC[C@H](Nc1nc(-c2ccc(NC(=O)NCC)c(OC)c2)ncc1C)c1cccnc1', -3.81);

----------
Test system: CP268
protocol summary: qHTS profiling for inhibitors of Plasmodium falciparum proliferation (AID 504749);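 note: 0% = DMSO vehicle and full inhibition = artemisinin control; nearly all actives have a fitted effect of over 60% in size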
measurement setup: P. falciparum in erythrocytes, SYBR Green DNA, 72 h; series mostly up to 28.7 µM
Inconclusive results are not listed. Activity calls are given as the source filed them. Calls follow the shape of the dose curve; as a rule, active = well fitted inhibition curve with a large enough effect; inconclusive = small, poorly fitted or top-dose-only effect; inactive = flat fitted curve, though single readings scatter.
property name: outcome

INSERT INTO measurements (compound, property_name, measured) VALUES
  ('N#Cc1c(N(CC(=O)O)CC(=O)O)sc(C(=O)O)c1CC(=O)O', 'outcome', 'inactive'),
  ('CN1CC(=O)N2C(Cc3c([nH]c4ccccc34)[C@H]2c2ccc3c(c2)OCO3)C1=O (stereo partly drawn)', 'outcome', 'inactive'),
  ('COc1cc2c(cc1OC)CC(=O)N(CCCN(C)C[C@H]1Cc3cc(OC)c(OC)cc31)CC2', 'outcome', 'inactive');

----------
protocol summary: High-throughput drug toxicity screening in the BPDCN cell line Gen2.2 (AID 1224824);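 note: cells exposed to compounds for 48 h before reading; 100% = DMSO and 0% = bortezomib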
measurement setup: Gen2.2 BPDCN cells; at 45.8 µM (top of the series) unless noted
property name: cell viability, % of control (lower = more cytotoxic) (%)

INSERT INTO measurements (molecule, units, measured) VALUES
  ('CNC(=O)c1cc(Oc2ccc(NC(=O)Nc3ccc(Cl)c(C(F)(F)F)c3)c(F)c2)ccn1', '%', 16.6),
  ('O=C(O)C1=NC(C(=O)O)CC(C=CN2c3cc(O)c(OC4OC(CO)C(O)C(O)C4O)cc3CC2C(=O)O)=C1 (stereo not given)', '%', 267),
  ('CN(C)N=Nc1nc[nH]c1C(N)=O', '%', 123),
  ('O=S(=O)(O)c1ccc2cc(N=Nc3cc(S(=O)(=O)O)c4cccnc4c3O)ccc2c1', '%', 63.9),
  ('C[C@@]1(c2cc(-c3cncnc3)c(F)cc2F)CCSC(N)=N1', '%', 9.95),
  ('CCCCC(C=O)NC(=O)C(CC(C)C)NC(=O)OCc1ccccc1 (stereo not given)', '%', 52.9),
  ('N[C@@H](CC(=O)N1CCn2c(nnc2C(F)(F)F)C1)Cc1cc(F)c(F)cc1F', '%', 162),
  ('CCCC1OC2C[C@@H]3[C@H]4CCC5=CC(=O)C=C[C@]5(C)[C@H]4C(O)C[C@]3(C)[C@]2(C(=O)CO)O1 (stereo not given in full)', '%', 12.2),
  ('COc1ccc2c(c1)CC[C@H]1[C@@H]2CC[C@]2(C)[C@@H](NCCCCCCN3C(=O)C=CC3=O)CC[C@H]12', '%', 154),
  ('O=C1NC(=O)C(c2cnc3ccccn23)=C1c1cn2c3c(cccc13)CN(C(=O)N1CCOCC1)CC2', '%', 36.5),
  ('Cc1cc(-c2ncc(CC(=O)Nc3ccc(-c4cnccn4)cn3)cc2C)ccn1', '%', 267),
  ('NCC1CCC(C(=O)O)CC1 (stereo not given)', '%', 110),
  ('CN1[C@H]2CC[C@H]1CC(OC(=O)c1c[nH]c3ccccc13)C2 (stereo not given in full)', '%', 99),
  ('OC[C@H]1O[C@@H](O[C@H]2[C@@H](O)[C@@](O)(CO)O[C@@H]2CO)[C@H](O)[C@@H](O)[C@@H]1O', '%', 137),
  ('COC1CCC(C(=O)c2ccc3nc4c(cc3c2)CCCO4)CC1 (stereo not given)', '%', 98),
  ('Nc1ncnc2c1ncn2[C@@H]1O[C@H](CO)[C@@H](O)[C@@H]1O', '%', 108),
  ('CC[C@H](C)C(=O)O[C@H]1C[C@H](O)C=C2C=C[C@H](C)[C@H](CC[C@@H](O)C[C@@H](O)CC(=O)O)[C@H]21', '%', 113),
  ('COc1ccc(-c2ccc3ncc4c(c3c2)n(-c2ccc(N3CCNCC3)c(C(F)(F)F)c2)c(=O)n4C)cn1', '%', 0.968),
  ('C[C@@H]1C[C@H]2[C@@H]3CCC4=CC(=O)C=C[C@]4(C)[C@@]3(F)[C@@H](O)C[C@]2(C)[C@@]1(O)C(=O)CO', '%', 184),
  ('C=CC[N+]1([C@H]2C[C@H]3[C@@H]4CC[C@H]5C[C@H](O)[C@@H](N6CCOCC6)C[C@]5(C)[C@@H]4CC[C@]3(C)[C@H]2OC(C)=O)CCCC1', '%', 168),
  ('COc1c(C)c2c(c(O)c1CC=C(C)CCC(=O)O)C(=O)OC2', '%', 94.4),
  ('Fc1ccc(C(c2ccc(F)cc2)N2CCN(CC=Cc3ccccc3)CC2)cc1', '%', 18.7),
  ('CN1N=C(N)c2cn([C@@H]3O[C@H](COP(=O)(O)O)[C@@H](O)[C@@H]3O)c3ncnc1c23', '%', 199),
  ('O=c1[nH]c(=O)n([C@H]2C[C@@H](O)[C@@H](CO)O2)cc1C(F)(F)F', '%', 118),
  ('CCN1C[C@H](C)n2c(c(O)c3c(=O)n(Cc4ccc(F)c(Cl)c4)nc(C(=O)NC)c32)C1=O', '%', 108);
